Hello, the source for this data is patent US20240287070A1, in case you need it.

Listing of entries alongside the reported half-life at 1 μM.
PROTOCOL_NOTES: Human liver microsome stability
Format: in vitro ADME
EXPERIMENTAL_SETUP: human, pooled human liver microsomes, pH 7.4, pooled human liver microsomes 0.5 mg/mL, 1 μM compound, NADPH 1 mM, 37° C., 0-60 min; read-out: HLM Metabolism t1/2
Description: Human Liver Microsome Stability t½ (Min) of Compounds of Formula (I) […] All incubations are performed singularly for each compound. […] The internal standard was added (1:1 supernatant to internal standard solution) and samples were analyzed using standard LC-MS conditions. From a plot of ln peak area ratio (compound peak area/internal standard peak area) against time, the gradient of the line is determined. […]

# annotated cases, reported half-life at 1 μM shown
• C[C@@H]1Cc2nn3c(c2CN1C(=O)c1ccc(Cl)c(C#N)c1)C(=O)N([C@H](C)c1ccc(OC(F)F)cc1)C[C@H]3C (relative stereo) = > 180 min
• CC(c1cc(F)c(=O)n(C2CC2)c1)N1C[C@@H](C)n2nc3c(c2C1=O)CN(C(=O)c1ccc(Cl)c(Cl)c1)[C@H](C)C3 (single isomer, unassigned) [Compound 46A] = > 180 min
• C[C@@H]1Cc2nn3c(c2CN1C(=O)c1ccc(Cl)c(C(F)(F)F)c1)C(=O)N([C@@H](C)c1ccc([S@@](C)(=N)=O)cc1)C[C@H]3C (relative stereo) [Compound 19D] = > 180 min
• CC(C)Oc1cc(C(C)N2C[C@@H](C)n3nc4c(c3C2=O)CN(C(=O)c2ccc(Cl)c(C(F)(F)F)c2)[C@H](C)C4)ccn1 (single isomer, unassigned) [Compound 48A] = 133 min

Q) If you can, please state the reported half-life at 1 μM value of CC(c1nnc(C2CC2)o1)N1C[C@@H](C)n2nc3c(c2C1=O)CN(C(=O)c1ccc(Cl)c(Cl)c1)[C@H](C)C3 (single isomer, unassigned) [Compound 44A] .
A) > 180 min

* * *

System: HepG2 or HepG2.117 cells
PROTOCOL_NOTES: Cytotoxicity, ATPlite Luminescence Assay
Assay type: cell-based, human
EXPERIMENTAL_SETUP: 3-days incubation unless marked with *
Listing of entries alongside the reported CC50.

* CNS(=O)(=O)c1ccc(C(C)N2C[C@@H](C)n3nc4c(c3C2=O)CN(C(=O)c2ccc(Cl)c(Cl)c2)[C@H](C)C4)cc1 (single isomer, unassigned) [Compound 17B] | > 50 µM
* CC(c1ccc(C#N)cc1)N1C[C@@H](C)n2nc3c(c2C1=O)CN(C(=O)c1ccc(Cl)c(Cl)c1)[C@H](C)C3 (single isomer, unassigned) [Compound 66B] | 19.1 µM

Q) If you can, please state the reported CC50 value of CC(c1ccc(C(C)(C)O)nc1)N1C[C@@H](C)n2nc3c(c2C1=O)CN(C(=O)c1ccc(Cl)c(C(F)(F)F)n1)[C@H](C)C3 (single isomer, unassigned) [Compound 62B] .
A) > 50 µM

* * *

PROTOCOL_NOTES: Human liver microsome stability
Assay type: in vitro ADME
EXPERIMENTAL_SETUP: human, pooled human liver microsomes, pH 7.4, pooled human liver microsomes 0.5 mg/mL, 1 μM compound, NADPH 1 mM, 37° C., 0-60 min; read-out: HLM Metabolism t1/2
Listing of entries alongside the reported half-life at 1 μM.

# annotated cases, reported half-life at 1 μM shown
• CN=[S@](C)(=O)c1ccc([C@@H](C)N2C[C@@H](C)n3nc4c(c3C2=O)CN(C(=O)c2ccc(Cl)c(Cl)c2)[C@H](C)C4)cn1 (relative stereo) [Compound 29A] = 102 min
• Cc1nnn(-c2ccc(C(C)N3C[C@@H](C)n4nc5c(c4C3=O)CN(C(=O)c3ccc(Cl)c(Cl)c3)[C@H](C)C5)cc2)n1 (single isomer, unassigned) [Compound 22A] = 81.1 min
• CC(c1cc(F)c(=O)n(C)c1)N1C[C@@H](C)n2nc3c(c2C1=O)CN(C(=O)c1ccc(Cl)c(Cl)c1)[C@H](C)C3 (single isomer, unassigned) [Compound 45B] = > 180 min
• CC(c1cnc(N2CCOC[C@@H]2C)nc1)N1C[C@@H](C)n2nc3c(c2C1=O)CN(C(=O)c1ccc(Cl)c(C(F)(F)F)c1)[C@H](C)C3 (single isomer, unassigned) [Compound 38A] = 60.8 min
• CC(c1ccc(C(C)(C)O)nc1)N1C[C@@H](C)n2nc3c(c2C1=O)CN(C(=O)c1ccc(Cl)c(F)c1)[C@H](C)C3 (single isomer, unassigned) [Compound 59A] = > 180 min
• CC(c1ccc(=O)n(C)n1)N1C[C@@H](C)n2nc3c(c2C1=O)CN(C(=O)c1ccc(Cl)c(Cl)c1)[C@H](C)C3 (single isomer, unassigned) [Compound 55A] = > 180 min
• CC(c1ccn(CC(F)(F)F)c(=O)c1)N1C[C@@H](C)n2nc3c(c2C1=O)CN(C(=O)c1ccc(Cl)c(Cl)c1)[C@H](C)C3 (single isomer, unassigned) [Compound 51A] = > 180 min
• CC(c1ccc(C(C)(C)O)nc1)N1C[C@@H](C)n2nc3c(c2C1=O)CN(C(=O)c1ccc(Cl)c(Cl)c1)[C@H](C)C3 (single isomer, unassigned) [Compound 2A] = > 180 min
• CC(c1ccc(C(C)(C)O)nc1)N1C[C@@H](C)n2nc3c(c2C1=O)CN(C(=O)c1ccc(Cl)c(C(F)(F)F)n1)[C@H](C)C3 (single isomer, unassigned) [Compound 62A] = > 180 min

Q) If you can, please state the reported half-life at 1 μM value of CC(c1ccc(NS(C)(=O)=O)cn1)N1C[C@@H](C)n2nc3c(c2C1=O)CN(C(=O)c1ccc(Cl)c(C(F)(F)F)c1)[C@H](C)C3 (single isomer, unassigned) [Compound 33A] .
A) > 180 min
